- Tested on: TESK1;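 further: kd values determined as follow-up on hits from a single-replicate KINOMEscan panel screen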
test.readout: Kd

# entry.smiles, value.reported
data = [
    ("CS(=O)(=O)CCNCc1nc(-c2ccc3ncnc(Nc4ccc(OCc5cccc(F)c5)c(Cl)c4)c3c2)cs1.Cl", "> 10 µM"),
]

* * *

- Tested on: BMPR1B;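 further: KINOMEscan kinase panel screen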
- assay.context: concentration: 1 μM, replicates: in singlicate; n = 1

# molecule, %Inh / %
rows = [
    ("COc1cc2c(Nc3cccc(NC(=O)c4ccccc4)c3)ncnc2cc1OCCCN1CCOCC1", 0),
    ("C[C@H]1CC[C@@H](C(=O)Nc2ccccc2)CN1c1cc(-c2ccc3c(N)n[nH]c3c2)nc(N)n1", 0),
    ("O=C(Nc1ccccc1F)NC1CCN(c2ccnc(Nc3ccc(F)cc3)n2)C1 (stereo not shown)", 0),
    ("CC(C)(C)OC(=O)NC1CCCN(c2cc(-c3ccc4c(N)n[nH]c4c3)nc(N)n2)C1 (stereo not shown)", 0),
]
